This collection of values is drawn from patent US7071219B2.

System: histone deacetylase (HDAC)
Assay: cellular acetylation assay (histone acetylation ELISA in PC3 cells)
Type: cell-based, human
Settings: compound 1 μM, 24 h incubation, ELISA with antibodies against acetylated histone H3 or H4
Please go through the items and note down their cell acetylation (PC3, 1 μM) [% of control].

Request: Return reported cell acetylation (PC3, 1 μM) [% of control]; argument: `CCCCN(C)C(=O)c1ccc(C(=O)Nc2ccccc2N)s1`
Result: 118.8 % of control

Request: Name the reported cell acetylation (PC3, 1 μM) [% of control] value associated with the compound `CN(C)CC(C)(C)CNC(=O)c1ccc(C(=O)Nc2ccccc2N)s1`
Result: 149.8 % of control

Request: # lookup: cell acetylation (PC3, 1 μM) [% of control] of CCCCCC(C)NC(=O)c1ccc(C(=O)Nc2ccccc2N)s1 (stereo not shown)
Result: 122.9 % of control

Request: Which measured cell acetylation (PC3, 1 μM) [% of control] value corresponds to `CC(C)N(CCNC(=O)c1ccc(C(=O)Nc2ccccc2N)cn1)C(C)C` ?
Result: 206.6 % of control

Request: Give the measured cell acetylation (PC3, 1 μM) [% of control] of `CC(C)N(CCNC(=O)c1ccc(C(=O)Nc2ccccc2N)nc1)C(C)C` .
Result: 244.8 % of control

Request: Tell me the measured cell acetylation (PC3, 1 μM) [% of control] of CCOC(=O)CC(C)NC(=O)c1ccc(C(=O)Nc2ccccc2N)nc1 (stereo not shown) , please.
Result: 211.6 % of control

Request: Reported cell acetylation (PC3, 1 μM) [% of control], compound `CCCCN(CCCC)CCCNC(=O)c1ccc(C(=O)Nc2ccccc2N)s1` : ____
Result: 195.7 % of control
